- Tested on: SR leukemia
- protocol_summary: NCI-60 one-dose screen, 48 h
- measurement_setup: 10 µM unless noted
The panel holds about 83,000 compounds, 20% with a hit somewhere; the sample as a whole holds those more often. Active and inactive are the calls of the source. Rule for the calls: active = growth percent below 10; inactive = the rest.
Lab note: assign the record to one of active, inactive

Please review the following examples before continuing.
> print(dat)
                                   molecule  class.label
1          COc1ccc(O)c(CNC(=O)CN2CCCC2=O)c1     inactive
2  Fc1c[c-]c(-c2ccccn2)c(F)c1.[CH3-].[Pt+2].c1ccc([PH+](c2ccccc2)c2ccccn2)cc1       active
3       O=C1C(Cl)=C(N2CCOCC2)C(=O)c2ccccc21       active
4  O=C(CN1CCN(C(=O)c2ccco2)CC1)Nc1ccc(Cl)cc1C(=O)c1ccccc1Cl     inactive
5  Cn1cccc1C1CC(=O)N(CCC[Se]C#N)C1=O (centres undefined)     inactive
6  COC(=O)[C@@H](C)C[C@H](Cc1ccccc1)NC(=O)c1cccc([C@@H](C[C@H](C(C)C)N(C)C(=O)[C@@H](NC(=O)[C@H]2CCCCN2C)C(C)C)OC(C)=O)n1       active

Q: What call does the record list for O=[As](O)(O)c1ccccc1[As](=O)(O)O ?
Result: inactive

Q: What call does the record list for CC(=O)OC1CCC2(C)C(CCC3C2CC(=O)C2(C)C3CC(Sc3ccc(N(CCCl)CCCl)cc3)C2C(C)=O)C1 (centres undefined) ?
Result: inactive

Q: What call does the record list for Cc1ccc(Nc2nc3c(s2)C2=CC[C@@H]4[C@H](CC[C@]5(C)C(=O)CC[C@@H]45)[C@@]2(C)CC3)cc1 ?
Result: inactive
